Test system: DMS-114
Experiment: NCI tumour cell line growth inhibition, 48 h
Calls of active or inactive are those of the source. Rule as the data show it: active = GI50 up to about 1.1 µM and inactive = higher.
Please reply with one of these outcomes: active, inactive

Take a look at these entries with their results.
compound	cat
C[C@]12C=CC(=O)C=C1CC[C@@H]1[C@@H]2CC[C@]2(C)OC(=O)CC[C@@H]12	inactive
CCN(CC)CCC(=O)/C=C/c1ccc(C)cc1	inactive
COc1ccccc1/C=N/C12CC3CC(CC(C3)C1)C2	inactive

Lab log entry: COC(=O)C(=O)C(C(=O)OC)C(=O)C(=O)Nc1cc(Cl)c(C)cc1S(=O)(=O)O (stereo not given) — outcome as called in the assay?
inactive

Lab log entry: `N=C(N)NS(=O)(=O)c1ccc(NC(=O)c2cccn3c(=O)c4ccccc4nc23)cc1` — outcome as called in the assay?
inactive
